biological target: T1, recombinant human heat shock cognate 71 kDa protein (Hsc70) (human, UniProt P11142 1-646, limits assumed); assay: SEC of peptide-Hsc70 mixture; peptide:Hsc70 molar ratio 0.5:1
T1 construct: also called rhHsc70; human Hsc70
T1 sequence (P11142 whole entry): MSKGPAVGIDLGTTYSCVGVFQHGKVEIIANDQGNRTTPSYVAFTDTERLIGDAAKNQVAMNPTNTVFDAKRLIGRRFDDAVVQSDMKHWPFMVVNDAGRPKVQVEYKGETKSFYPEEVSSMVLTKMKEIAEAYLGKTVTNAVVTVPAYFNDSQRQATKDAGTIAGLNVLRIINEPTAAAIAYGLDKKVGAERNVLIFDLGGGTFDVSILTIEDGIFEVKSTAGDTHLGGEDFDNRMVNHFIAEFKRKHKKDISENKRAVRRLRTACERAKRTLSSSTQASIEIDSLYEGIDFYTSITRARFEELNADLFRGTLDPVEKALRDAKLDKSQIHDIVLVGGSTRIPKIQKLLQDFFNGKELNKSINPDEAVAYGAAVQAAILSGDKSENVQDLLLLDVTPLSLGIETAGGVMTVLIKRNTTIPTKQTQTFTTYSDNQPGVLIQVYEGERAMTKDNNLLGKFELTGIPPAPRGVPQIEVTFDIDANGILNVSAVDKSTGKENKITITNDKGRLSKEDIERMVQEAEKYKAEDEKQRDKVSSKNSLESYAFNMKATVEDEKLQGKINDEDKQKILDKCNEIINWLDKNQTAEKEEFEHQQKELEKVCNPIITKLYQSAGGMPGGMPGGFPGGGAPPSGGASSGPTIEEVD
hey, just use yes if measured Percent complexation with Hsc70 is less than 50%, otherwise no

{"columns": ["Binder", "Assigned Class"],
 "data": [
  ["FFRKNWLRLFW (Synthetic peptide) [PEP010]", "yes"],
  ["FFRKNWIRITW (Synthetic peptide) [PEP013]", "yes"],
  ["FFRKNWLRLKW (Synthetic peptide) [PEP011]", "no"],
  ["FFRKNWLKLKW (Synthetic peptide) [PEP055]", "no"]
]}
